Recorded below: Ki, system SARS-CoV PLpro (Severe acute respiratory syndrome coronavirus).
Give the quantity in µM, number only.

Worked examples, 5 compounds total:
COc1c(CC=C(C)C)c(O)cc2c1[C@@H]1Oc3c(cc(C)c(O)c3CC=C(C)C)[C@@H]1CO2 [Compound 4, bicolosin A]; 45.2
CC(C)=CCc1cc2c(cc1O)OCC1c3cc(C)c(O)c(CC=C(C)C)c3OC21 (stereo not drawn) [Compound 2, lespebuergine G4]; 33.2
CC(C)=CCC/C(C)=C/Cc1c(O)ccc(C(=O)/C=C/c2ccc(O)cc2)c1O [Compound 7, xanthoangelol]; 5.5
CC(C)=CCC[C@@]1(C)C=Cc2c(ccc(C(=O)/C=C/c3ccc(O)cc3)c2O)O1 (racemic) [Compound 8, (±)-lespeol]; 54
COc1c(CC=C(C)C)c(O)cc2c1[C@@H]1Oc3c(ccc(O)c3CC=C(C)C)[C@@H]1CO2 [Compound 3, 1-methoxyerythrabyssin II]; 8.6

Shifting focus to the compound that follows.
Give Ki for COc1c(O)ccc(C2COc3cc(O)cc(O)c3C2=O)c1OC (stereo not drawn) [Compound 9, parvisoflavanone] 75.3

====

# TARGET: SARS-CoV PLpro (Severe acute respiratory syndrome coronavirus)
pIC50: −log10 of the molar value.
pIC50 vs 5: at or above is yes, below is no.

Consider the following illustrative entries.
CC(C)=CCC/C(C)=C/Cc1c(O)ccc(C(=O)/C=C/c2ccc(O)cc2)c1O [Compound 7, xanthoangelol]; yes
COc1c(O)ccc(C2COc3cc(O)cc(O)c3C2=O)c1OC (stereo not drawn) [Compound 9, parvisoflavanone]; no
CC(C)=CCC/C(C)=C/Cc1cc2c(cc1O)OC[C@H]1c3cc(C)c(O)c(CC=C(C)C)c3O[C@@H]21 [Compound 5, bicolosin B]; no

Is pIC50 for CC(C)=CCC[C@@]1(C)C=Cc2c(ccc(C(=O)/C=C/c3ccc(O)cc3)c2O)O1 (racemic) [Compound 8, (±)-lespeol] at or above 5? no
